System: OVCAR-5 ovarian
ASSAY INFO: NCI-60 one-dose screen, 48 h (100 = growth as untreated, 0 = no growth, -100 = all killed)
MEASUREMENT CONDITIONS: 10 µM
This is part of a sample that, as a whole, favours compounds with a hit. Of some 83,000 tested, about 20% had one in any assay. Activity calls are given as the source filed them. Rule for the calls: active = growth percent below 10; inactive = the rest.
This section presents compounds with their documented growth values.
MEASURED ENDPOINT: growth

[[record]]
compound = "CCOC(=O)c1cc(C(=O)c2ccc(F)cc2F)n2ccccc12"
observed_measurement = "99.7% (inactive)"

[[record]]
compound = "Cc1ccc(C)c(COc2cc(NC(=O)c3ccc4c(c3)OCO4)ccc2N(C)S(C)(=O)=O)c1"
observed_measurement = "30.7% (inactive)"

[[record]]
compound = "O=C(/C=C/c1cccc(B(O)O)c1)c1cccc(B(O)O)c1"
observed_measurement = "-12% (active)"

[[record]]
compound = "Cc1c(Cl)cccc1NC(=O)CCCl"
observed_measurement = "106% (inactive)"

[[record]]
compound = "CCn1c(SC/C(=N/O)c2ccccc2)nnc1-c1ccccc1"
observed_measurement = "96.8% (inactive)"

[[record]]
compound = "Nc1ncnc2c1ncn2C1(CO)OCC(O)C(O)C1O (stereo unspecified)"
observed_measurement = "109% (inactive)"

